test: total protein half-life in vivo (active degradation + dilution); higher = more stable protein; conditions: E. coli NCM3722 delta-clpP delta-lon delta-hslV; growth: N-lim chemostat; doubling time 6 h
reportedEndpoint: total protein half-life in vivo (h)
The answer is to be given in h; state only the numeric part.

# input sequence: MSDNAQLTGLCDRFRGFYPVVIDVETAGFNAKTDALLEIAAITLKMDEQGWLMPDTTLHFHVEPFVGANLQPEALAFNGIDPNDPDRGAVSEYEALHEIFKVVRKGIKASGCNRAIMVAHNANFDHSFMMAAAERASLKRNPFHPFATFDTAALAGLALGQTVLSKACQTAGMDFDSTQAHSALYDTERTAVLFCEIVNRWKRLGGWPLSAAEEV ; wanted: its total protein half-life in vivo
5.5

Which value of total protein half-life in vivo has been reported for MKKWAVIISAVGLAFAVSGCSSDYVMATKDGRMILTDGKPEIDDDTGLVSYHDQQGNAMQINRDDVSQIIER in the records?
4.61

---

test: total protein half-life in vivo (active degradation + dilution); higher = more stable protein; settings: wild type E. coli NCM3722; growth: P-lim chemostat; doubling time 12 h
The label depends only on total protein half-life in vivo: criterion met if it is at least 7 h, criterion not met if it is smaller.

Does the sequence MIQPISGPPPGQPPGQGDNLPSGTGNQPLSSQQRTSLESLMTKVTSLTQQQRAELWAGIRHDIGLSGDSPLLSRHFPAAEHNLAQRLLAAQKSHSARQLLAQLGEYLRLGNNRQAVTDYIRHNFGQTPLNQLSPEQLKTILTLLQEGKMVIPQPQQREATDRPLLPAEHNALKQLVTKLAAATGEPSKQIWQSMLELSGVKDGELIPAKLFNHLVTWLQARQTLSQQNTPTLESLQMTLKQPLDASELAALSAYIQQKYGLSAQSSLSSAQAEDILNQLYQRRVKGIDPRVMQPLLNPFPPMMDTLQNMATRPALWILLVAIILMLVWLVR have recorded total protein half-life in vivo that is 7 h or more?
criterion not met

Dear colleague, could you confirm whether MKSRAAVAFAPGKPLEIVEIDVAPPKKGEVLIKVTHTGVCHTDAFTLSGDDPEGVFPVVLGHEGAGVVVEVGEGVTSVKPGDHVIPLYTAECGECEFCRSGKTNLCVAVRETQGKGLMPDGTTRFSYNGQPLYHYMGCSTFSEYTVVAEVSLAKINPEANHEHVCLLGCGVTTGIGAVHNTAKVQPGDSVAVFGLGAIGLAVVQGARQAKAGRIIAIDTNPKKFDLARRFGATDCINPNDYDKPIKDVLLDINKWGIDHTFECIGNVNVMRAALESAHRGWGQSVIIGVAVAGQEISTRPFQLVTGRVWKGSAFGGVKGRSQLPGMVEDAMKGDIDLEPFVTHTMSLDEINDAFDLMHEGKSIRTVIRY has total protein half-life in vivo at or above 7 h?
criterion met

Decide: is the reported value of total protein half-life in vivo for MAHIVTLNTPSREDWLTQLADVVTDPDELLRLLNIDAEEKLLAGRSAKKLFALRVPRSFIDRMEKGNPDDPLLRQVLTSQDEFVIAPGFSTDPLEEQHSVVPGLLHKYHNRALLLVKGGCAVNCRYCFRRHFPYAENQGNKRNWQTALEYVAAHPELDEMIFSGGDPLMAKDHELDWLLTQLEAIPHIKRLRIHSRLPIVIPARITEALVECFARSTLQILLVNHINHANEVDETFRQAMAKLRRVGVTLLNQSVLLRDVNDNAQTLANLSNALFDAGVMPYYLHVLDKVQGAAHFMVSDDEARQIMRELLTLVSGYLVPKLAREIGGEPSKTPLDLQLRQQ equal to or greater than 7 h?
criterion not met

// inclusive: total protein half-life in vivo at least 7 h? input: MLELLFLLLPVAAAYGWYMGRRSAQQNKQDEANRLSRDYVAGVNFLLSNQQDKAVDLFLDMLKEDTGTVEAHLTLGNLFRSRGEVDRAIRIHQTLMESASLTYEQRLLAIQQLGRDYMAAGLYDRAEDMFNQLTDETDFRIGALQQLLQIYQATSEWQKAIDVAERLVKLGKDKQRVEIAHFYCELALQHMASDDLDRAMTLLKKGAAADKNSARVSIMMGRVFMAKGEYAKAVESLQRVISQDRELVSETLEMLQTCYQQLGKTAEWAEFLQRAVEENTGADAELMLADIIEARDGSEAAQVYITRQLQRHPTMRVFHKLMDYHLNEAEEGRAKESLMVLRDMVGEKVRSKPRYRCQKCGFTAYTLYWHCPSCRAWSTIKPIRGLDGL [P0AB58]
criterion met

Kindly determine if total protein half-life in vivo recorded for MSRFIPIELHHASRLLNHGPTVLITSFDEQSQRRNIMAAAWSMPVEFEPPRVAIVVDKSTWTRELIEHNGKFGIVIPGVAATNWTWAVGSVSGRDEDKFNCYGIPVVRGPVFGLPLVEEKCLAWMECRLLPATSAQEEYDTLFGEVVSAAADARVFVEGRWQFDDDKLNTLHHLGAGTFVTSGKRVTAG is above or exactly 7 h.
criterion met

---

experiment: total protein half-life in vivo (active degradation + dilution); higher = more stable protein; settings: wild type E. coli NCM3722; growth: N-lim chemostat; doubling time 6 h
Please go through the items and note down their total protein half-life in vivo.
Numeric answer only, unit h assumed.

Look up total protein half-life in vivo: MQIIFGEKCVSLLRLFFAAVLMLWCAQTAAYSGQCHTTQGNPYIGVNFGVKTLEEEANTAGVVKDKFYQWNESNDYYVSCDCDKDNVRSGRWAFAADSPLVYLGDNWYKINDYLAAKVLLQVKGSSPTAVPFENVGTGGDTRWHICDPGGQRLGGQGASGNSGSFSLKILQPFVGSVVIPPMALARLYECYNIPAGDSCTTTGTPVLVYYLSGTINSLGSCSVNAGETIEVDLGDVFAANFRVVGHKPLGARTAELAIPVRCNTGNAGLVNVNLSLTATTDPSYPQAIKTSRPGVGVVVTDSQNNIISPAGGTLPLSIPDDADSIARMNVYPVSTTGVPPETGRFEATATVRINFD
7.57

Which total protein half-life in vivo is listed for MFHRLWTLIRKELQSLLREPQTRAILILPVLIQVILFPFAATLEVTNATIAIYDEDNGEHSVELTQRFARASAFTHVLLLKSPQEIRPTIDTQKALLLVRFPADFSRKLDTFQTAPLQLILDGRNSNSAQIAANYLQQIVKNYQQELLEGKPKPNNSELVVRNWYNPNLDYKWFVVPSLIAMITTIGVMIVTSLSVAREREQGTLDQLLVSPLTTWQIFIGKAVPALIVATFQATIVLAIGIWAYQIPFAGSLALFYFTMVIYGLSLVGFGLLISSLCSTQQQAFIGVFVFMMPAILLSGYVSPVENMPVWLQNLTWINPIRHFTDITKQIYLKDASLDIVWNSLWPLLVITATTGSAAYAMFRRKVM [P0AFP9] ?
6.33

---

Assign total protein half-life in vivo to each entry below.
assay: total protein half-life in vivo (active degradation + dilution); higher = more stable protein; conditions: wild type E. coli NCM3722; growth: C-lim chemostat; doubling time 12 h
Note: unit h is implicit; provide only the numeric part.

So what's the measured total protein half-life in vivo for this one? MKATSEELAIFVSVVESGSFSRAAEQLGQANSAVSRAVKKLEMKLGVSLLNRTTRQLSLTEEGERYFRRVQSILQEMAAAESEIMETRNTPRGLLRIDAATPVVLHFLMPLIKPFRERYPEVTLSLVSSETIINLIERKVDVAIRAGTLTDSSLRARPLFNSYRKIIASPDYISRYGKPETIDDLKQHICLGFTEPASLNTWPIARSDGQLHEVKYGLSSNSGETLKQLCLSGNGIACLSDYMIDKEIARGELVELMADKVLPVEMPFSAVYYSDRAVSTRIRAFIDFLSEHVKTAPGGAVREA
12.7

Need total protein half-life in vivo, item MIEIESRELADIPVLHAYPVGQKDTPLPCVIFYHGFTSSSLVYSYFAVALAQAGLRVIMPDAPDHGSRFSGDAARRLNQFWQILLQSMQEFTTLRAAIAEENWLLDDRLAVGGASMGAMTALGITARHPTVRCTASMMGSGYFTSLARSLFPPLIPETAAQQNEFNNIVAPLAEWEATNHLEQLSDRPLLLWHGLDDDVVPADESLRLQQALSETGRDKLLTCSWQPGVRHRITPEALDAAVTFFRQHL
11

Given MSLPHCPKCNSEYTYEDNGMYICPECAYEWNDAEPAQESDELIVKDANGNLLADGDSVTIIKDLKVKGSSSMLKIGTKVKNIRLVEGDHNIDCKIDGFGPMKLKSEFVKKN [P0AFJ1] , state its recorded total protein half-life in vivo.
10.2

---

assay: total protein half-life in vivo (active degradation + dilution); higher = more stable protein; conditions: wild type E. coli NCM3722; growth: N-lim chemostat; doubling time 6 h
Label false if total protein half-life in vivo falls below 4 h; label true in every other case.

Entry MSKSRLTVFSFVRRFLLRLMVVLAVFWGGGIALFSVAPVPFSAVMVERQVSAWLHGNFRYVAHSDWVSMDQISPWMGLAVIAAEDQKFPEHWGFDVASIEKALAHNERNENRIRGASTISQQTAKNLFLWDGRSWVRKGLEAGLTLGIETVWSKKRILTVYLNIAEFGDGVFGVEAAAQRYFHKPASKLTRSEAALLAAVLPNPLRFKVSSPSGYVRSRQAWILRQMYQLGGEPFMQQHQLD : is its total protein half-life in vivo no less than 4 h?
true

Determine whether measured total protein half-life in vivo meets or exceeds 4 h for MINYGVVGVGYFGAELARFMNMHDNAKITCVYDPENGENIARELQCINMSSLDALVSSKLVDCVIVATPNYLHKEPVIKAAKNKKHVFCEKPIALSYEDCVDMVKACKEAGVTFMAGHIMNFFNGVQYARKLIKEGVIGEILSCHTKRNGWENKQERLSWKKMKEQSGGHLYHHIHELDCVQHLLGEIPETVTMIGGNLAHSGPGFGNEDDMLFMTLEFPSGKLATLEWGSAFNWPEHYVIINGTKGSIKIDMQETAGSLRIGGQTKHFLVHETQEEDDDRRKGNMTSEMDGAIAYGHPGKKTPLWLASLIRKETLFLHNILCGAKPEEDYIDLLNGEAAMSAIATADAATLSRSQDRKVKISEIIKHTSVM
true

Has MTQFASPVLHSLLDTDAYKLHMQQAVFHHYYDVHVAAEFRCRGDDLLGIYADAIREQVQAMQHLRLQDDEYQWLSALPFFKADYLNWLREFRFNPEQVTVSNDNGKLDIRLSGPWREVILWEVPLLAVISEMVHRYRSPQADVAQALDTLESKLVDFSALTAGLDMSRFHLMDFGTRRRFSREVQETIVKRLQQESWFVGTSNYDLARRLSLTPMGTQAHEWFQAHQQISPDLANSQRAALAAWLEEYPDQLGIALTDCITMDAFLRDFGVEFASRYQGLRHDSGDPVEWGEKAIAHYEKLGIDPQSKTLVFSDNLDLRKAVELYRHFSSRVQLSFGIGTRLTCDIPQVKPLNIVIKLVECNGKPVAKLSDSPGKTICHDKAFVRALRKAFDLPHIKKAS a recorded total protein half-life in vivo greater than or equal to 4 h?
false

Please tell me: is the sequence MTLRKILALTCLLLPMMASAHQFETGQRVPPIGITDRGELVLDKDQFSYKTWNSAQLVGKVRVLQHIAGRTSAKEKNATLIEAIKSAKLPHDRYQTTTIVNTDDAIPGSGMFVRSSLESNKKLYPWSQFIVDSNGVALGAWQLDEESSAVVVLDKDGRVQWAKDGALTPEEVQQVMDLLQKLLK at or over 4 h in terms of total protein half-life in vivo?
true
